Source: ChEMBL document CHEMBL4251574

# System: Human immunodeficiency virus 1
# experimental-protocol: Antiviral activity against HIV1 infected in human C8166 cells assessed as reduction in viral infection by measuring inhibition of syncytia formation incubated for 3 to 7 days by p24 detection based ELISA
# Type: functional, organism-based
# recorded-conditions: Human immunodeficiency virus 1, C8166
readout: EC50 (nM)

1) [N-]=[N+]=N[C@]1(CO)O[C@@H](n2ccc(N)nc2=O)[C@@H](F)[C@@H]1O ... 0.3

###

# Tested on: Hepatitis B virus
# experimental-protocol: Antiviral activity against Hepatitis B virus infected in human HepG2.2.15 cells assessed as inhibition of HBsAg secretion at 5 uM after 9 days by ELISA relative to control
# Assay type: functional
# recorded-conditions: HepG2.2.15, 216 h
# inhibition at 5 µM values compiled below
readout: inhibition at 5 µM (%)

1) [N-]=[N+]=N[C@]1(CO)O[C@@H](n2cc(C(N)=O)nn2)[C@@H](F)[C@@H]1O ... 45.3
2) CNC(=N)c1cn([C@@H]2O[C@@](CO)(N=[N+]=[N-])[C@@H](O)[C@@H]2F)nn1 ... 22.2
3) COC(=O)c1cn([C@@H]2O[C@@](CO)(N=[N+]=[N-])[C@@H](O)[C@@H]2F)nn1 ... 22
4) [N-]=[N+]=N[C@]1(CO)O[C@@H](n2cc(CO)nn2)[C@@H](F)[C@@H]1O ... 21.5
5) [N-]=[N+]=N[C@]1(CO)O[C@@H](n2cc(C3CC3)nn2)[C@@H](F)[C@@H]1O ... 28.9
6) [N-]=[N+]=N[C@]1(CO)O[C@@H](n2cc(-c3nnn[nH]3)nn2)[C@@H](F)[C@@H]1O ... 40
7) COC(=N)c1cn([C@@H]2O[C@@](CO)(N=[N+]=[N-])[C@@H](O)[C@@H]2F)nn1 ... 17.7
